test system: SNB-75; test: NCI tumour cell line growth inhibition, 48 h
The source made the active and inactive calls. Cut-off read from the data, not from the text of the source: active = GI50 up to about 1.1 µM and inactive = higher.
Allowed answers: active, inactive

// param item: COC(=O)C12OCC34C(CC5C(C)=CC(=O)C(O)C5(C)C3C(O)C1O)OC(=O)C(OC(=O)CC(C)C)C24 (stereo unspecified) ; yields the recorded call active

// param item: CC(=O)c1c(P(=O)(OC(C)C)OC(C)C)nn(-c2ccc([N+](=O)[O-])cc2)c1C ; yields the recorded call inactive

// param item: C=C[C@]1(C)CC(=O)C(C(C)C=O)[C@]12C(=O)Oc1cccc(C)c1C2=O (stereo partly specified) ; yields the recorded call inactive

// param item: CCCCCCCCCc1cc(=O)c2c(O)cccc2o1 ; yields the recorded call inactive

// param item: COC(=O)Cc1cc(OC)c(OC)cc1Br ; yields the recorded call inactive

// param item: O=C(/C=C1\C[C@H]2C=Nc3ccccc3C(=O)N2C1)NCCCCNC(=O)/C=C1\C[C@H]2C=Nc3ccccc3C(=O)N2C1 ; yields the recorded call inactive

// param item: CS/C(=N/C#N)NCCc1c[nH]c2ccccc12 ; yields the recorded call inactive

// param item: O=C(CC(CC(=O)Oc1c(Br)cc(Br)cc1C(=O)O)C(=O)Oc1c(Br)cc(Br)cc1C(=O)O)Oc1c(Br)cc(Br)cc1C(=O)O ; yields the recorded call inactive

// param item: C1CC2CN(CCCN3CCOCC3)C(C1)O2 (stereo unspecified) ; yields the recorded call inactive

// param item: CCCCCCc1cc2cc(-c3cn4ccccc4n3)c(=O)oc2cc1O ; yields the recorded call inactive

// param item: O=C1CCC2(CC1CC[S+]([O-])c1ccccc1)OCCO2 (stereo unspecified) ; yields the recorded call inactive

// param item: Cc1cc(NCCCCCCNc2cc(C)nc3ccc(Cl)cc23)c2cc(Cl)ccc2n1 ; yields the recorded call inactive

// param item: Cc1cc(-c2[nH]c(C(=O)O)cc2I)on1 ; yields the recorded call inactive

// param item: COc1cc(/C=C2/Oc3c(OC)cccc3C2=O)ccc1O ; yields the recorded call inactive

// param item: CC1CC[P+](c2ccccc2)(c2ccccc2)c2c1ccc1ccccc21 (stereo unspecified) ; yields the recorded call inactive

// param item: O=C1CCCC(=O)N1n1c(Cc2ccc(Cl)cc2)n[nH]c1=O ; yields the recorded call inactive

// param item: CNC(=O)SCC(N)C(=O)O (stereo unspecified) ; yields the recorded call inactive

// param item: Cc1c(Cl)cccc1NC(=O)c1cccc([N+](=O)[O-])c1O ; yields the recorded call inactive

// param item: Cc1ccc(-c2cc(C(F)(F)F)nn2-c2ccc(S(N)(=O)=O)cc2)cc1 ; yields the recorded call inactive

// param item: CCCC(=O)Nc1cc(/C=C/C(=O)N2CC(CCl)c3c2cc(OC(C)=O)c2[nH]cc(C)c32)n(C)c1 (stereo unspecified) ; yields the recorded call active

// param item: COC(=O)c1ccc(NCc2cc(O)ccc2O)cc1 ; yields the recorded call inactive

// param item: CC(C)N(C(=O)C12C3C4C1C1C2C3C41C(=O)O)C(C)C (stereo unspecified) ; yields the recorded call inactive

// param item: C(/Cc1ccc2c(c1)OCO2)=N\N=C1NCCN1 ; yields the recorded call inactive

// param item: CCOC(=O)CSc1nc(N)c2c(-c3ccc(OC)c(OC)c3)c3c(nc2n1)CCCC3 ; yields the recorded call inactive

// param item: O=C1c2ccccc2C(=O)N1CCc1nc(-c2ccccc2)c[nH]1 ; yields the recorded call inactive

// param item: C=CCOCn1ccc(N)nc1=O ; yields the recorded call inactive

// param item: C[N+](C)(C)CC1CCCC(C[N+](C)(C)C)C1=O (stereo unspecified) ; yields the recorded call inactive

// param item: CC(=O)SCCC(NC(=S)Nc1ccccc1)P(=O)(Oc1ccccc1)Oc1ccccc1 (stereo unspecified) ; yields the recorded call inactive

// param item: O=C(N/C(=C\c1ccccc1O)c1nc2ccccc2[nH]1)c1ccccc1 ; yields the recorded call inactive

// param item: CCc1c(CNC2=NCCN2)c(CC)c(CNC2=NCCN2)c(CC)c1CNC1=NCCN1 ; yields the recorded call inactive

// param item: CCCCN(CCCC)CC(C(C)=O)C(c1ccccc1)c1c(O)c2ccccc2oc1=O (stereo unspecified) ; yields the recorded call inactive

###

tested on: COLO 205; assay: NCI tumour cell line growth inhibition, 48 h
Calls of active or inactive are those of the source. No stated cut-off is given here; in the data, active = GI50 up to about 1.1 µM and inactive = higher.
Allowed answers: yes for active, no for inactive

// param item: CSc1c(C(=O)Nc2ccc(C)cc2)c(N)n(N)c(=O)c1C#N ; yields the recorded call no

// param item: O=C(N/C(=C\c1ccccc1O)c1nc2ccccc2[nH]1)c1ccccc1 ; yields the recorded call no

// param item: OC1[C@@H]2[C@@H](O)CCCN2C[C@@H](O)[C@H]1O (stereo partly specified) ; yields the recorded call no

// param item: COc1cc(O)c2c(=O)c3ccccc3n(C)c2c1 ; yields the recorded call no

// param item: Cc1cccc2nc3cccc(C(=O)NCCN(C)C)c3nc12 ; yields the recorded call yes

// param item: CC1(C)CCC[C@@]2(C)C1CCC1(C)C(CCc3ccoc3)/C(=C/OS(=O)(=O)O)CCC12 (stereo partly specified) ; yields the recorded call no

// param item: CN1CCN2c3ccccc3CC(C#N)(C#N)C2C1 (stereo unspecified) ; yields the recorded call no

// param item: CC(C)CC(NC(O)[BH2-][N+](C)(C)C)C(=O)NC(Cc1ccccc1)C(=O)N[C@H]1c2ccsc2/C(=N/O)[C@H]1O (stereo partly specified) ; yields the recorded call no

// param item: COc1cccc(NC(=O)C(=O)C(C(C)=O)c2nc3ccc(Cl)cc3nc2O)c1 (stereo unspecified) ; yields the recorded call no

// param item: N#C[C@H](c1nc2ccccc2[nH]1)c1nc2ccccc2nc1Cl ; yields the recorded call no

// param item: C=C1CC2OC2(C(=O)O[C@H]2CCC3[C@@H]4CCC5=CC(=O)CC[C@]5(C)C4CC[C@@]32C)C1=O (stereo partly specified) ; yields the recorded call no

// param item: O=C1C(Br)=C[C@H]2C3C=CC(Br)(C3=O)[C@@H]12 (stereo partly specified) ; yields the recorded call no

// param item: CC(=O)c1cccc(N2COC(C)(C)c3nc4ccccc4n3C2)c1 ; yields the recorded call no

// param item: CC1C2CCC3C(O)C2(CC(O)C2(O)C1CC(O)C2(C)C)CC3(C)O (stereo unspecified) ; yields the recorded call no

// param item: CCSc1nnc2c(-c3ccccc3)n[nH]c2n1 ; yields the recorded call no

// param item: CC(=O)NC1CCC(NC(=O)OC(C)(C)C)C(NC(=O)OC(C)(C)C)C1 (stereo unspecified) ; yields the recorded call no

// param item: O=C(CC(=O)N(C(=O)/C=C\c1ccccc1)c1ccc(Cl)cc1)N1N=C(c2ccccc2)C(/N=N/c2cccc([N+](=O)[O-])c2)C1=O (stereo unspecified) ; yields the recorded call no

// param item: O=C(/N=c1/[nH]/c(=N/C(=O)c2ccccc2)ss1)c1ccccc1 ; yields the recorded call no

// param item: CC(C)(c1ccc(C=O)o1)c1ccc(C(C)(C)c2ccc(C=O)o2)o1 ; yields the recorded call no

// param item: O=C(O)CSc1n[nH]c(=O)[nH]c1=O ; yields the recorded call no

// param item: CC(=O)Oc1cc2c(cc1OC(C)=O)OCC(c1ccccc1)C2 (stereo unspecified) ; yields the recorded call no

###

system: MOLT-4; test: NCI tumour cell line growth inhibition, 48 h
The source made the active and inactive calls. No stated cut-off is given here; in the data, active = GI50 up to about 1.1 µM and inactive = higher. Square brackets hold non-standard residues; d marks the D form. Peptide text beside a SMILES is read from it. * marks the point of attachment. AllylGly = C=CC[CH](N)C(=O)O; Boc = CC(C)(C)OC(=O)*; OtBu = CC(C)(C)O*
property.measured: GI50

Give the measured GI50 for CC(C)CC(NC(O)[BH2-][N+](C)(C)C)C(=O)NC(Cc1ccccc1)C(=O)N[C@H]1c2ccsc2/C(=N/O)[C@H]1O (stereo partly drawn) > 100 µM (inactive)

Give the measured GI50 for N#C[C@H](c1nc2ccccc2[nH]1)c1nc2ccccc2nc1Cl 4.04 µM (inactive)

Give the measured GI50 for Cc1ccc2[nH]c3[nH]c(=O)[nH]c(=O)c3c2c1 > 100 µM (inactive)

Give the measured GI50 for CCN(CC)Cc1cc(Nc2c3ccccc3nc3c4ccccc4n(C)c23)cc(CN(CC)CC)c1O 1.63 µM (inactive)

Give the measured GI50 for COc1ccc(Nc2nc3cc(C(F)(F)F)ccc3nc2C(=O)O)cc1 7.87 µM (inactive)

Give the measured GI50 for O=C(Nc1ccccc1F)c1c(O)nc2sccn2c1=O > 10 µM (inactive)

Give the measured GI50 for O=C(N/C(=C\c1ccccc1O)c1nc2ccccc2[nH]1)c1ccccc1 > 100 µM (inactive)

Give the measured GI50 for CC(SCc1ccccc1)C(=O)O (stereo not drawn) > 100 µM (inactive)

Give the measured GI50 for COc1ccc2c(c1O)-c1cc(O)cc3c1[C@@H](C2)N(C)CC3 66.1 µM (inactive)

Give the measured GI50 for CCCCOc1ccc(S(=O)(=O)N/C(N)=N/c2ccc(Cl)cc2)cc1 11.2 µM (inactive)

Give the measured GI50 for CCOC1=NC(C(F)(F)F)(C(F)(F)F)N=C(N2CCCCC2)O1 > 100 µM (inactive)

Give the measured GI50 for C=CCC(NC(=O)C(CC(=O)OC(C)(C)C)NC(=O)OC(C)(C)C)C(=O)OC (stereo not drawn) (Boc-Asp(OtBu)-[AllylGly]-OMe; configuration not given here) > 49.9 µM (inactive)

Give the measured GI50 for CSC12c3cc(C)n(-c4ccc([N+](=O)[O-])cc4)c3CC(C)(C)CN1C(=O)C2Oc1ccccc1 (stereo not drawn) > 100 µM (inactive)

Give the measured GI50 for CCOC(=O)c1c(NC(=O)c2ccccc2)c(C#N)c2n1CCCCC2 > 100 µM (inactive)

Give the measured GI50 for COc1cc(-c2cc(=O)c3c(O)c(CC=C(C)C)c(O)cc3o2)ccc1O 16.3 µM (inactive)

Give the measured GI50 for Cc1nnc(Nc2ccccc2)o1 > 100 µM (inactive)

Give the measured GI50 for COc1cccc(NC(=O)C(=O)C(C(C)=O)c2nc3ccc(Cl)cc3nc2O)c1 (stereo not drawn) > 100 µM (inactive)

Give the measured GI50 for C[C@]12CC[C@@H]3c4ccc(O)cc4CC[C@H]3[C@@H]1C/C(=C\c1ccc(C#N)cc1)C2=O 23.5 µM (inactive)
